Where do these numbers come from? They come from ChEMBL document CHEMBL1201862.

test system: OVCAR-5; assay: NCI tumour cell line growth inhibition, 48 h
Activity calls are given as the source filed them. No stated cut-off is given here; in the data, active = GI50 up to about 1.1 µM and inactive = higher.
observed.property: GI50

For record `CCCCCCc1nn2c(-c3ccncc3)nnc2s1` the listed GI50 is > 10 µM (inactive)

Kindly note the recorded GI50 for `O=C1C=Cc2ncccc2C1=O` , which is > 44.2 µM (inactive)

What the record says about `COc1cc2nc(-c3cccs3)nc(Cl)c2cc1OC` : GI50 is > 100 µM (inactive)

get_value(item= COCC([C@@H](O)C(O)C(=O)NCC[C@@H](C)c1nc(/C=C/CC2OC3(C[C@H](O)C2C)OC(C(C[C@H](O)C(C)[C@H](O)C(C)/C=C(C)/C(C)=C/C=C/C(C)=C/C#N)OC)[C@@H](OP(=O)(O)O)C3(C)C)co1)N(C)C (stereo not given in full) , readout=GI50) returns 0.000188 µM (active)

compound CCN1CCC(C)OP1(=O)Cc1ccccc1 (stereo not given) , GI50 observed: > 100 µM (inactive)

The compound listed as `O=C(c1ccccc1)c1ccc(COc2ccc(C(c3c(O)c4ccccc4oc3=O)c3c(O)c4ccccc4oc3=O)cc2)cc1` shows GI50 equal to 18.9 µM (inactive)

Record summary for `COc1c2c(c(OC)c3c1c(=O)c1ccccc1n3C)OCO2` : reported GI50 = > 72.3 µM (inactive)

Lab book: GI50 of C=CCCCN1CCCC(C)C1=S (stereo not given) noted as > 100 µM (inactive)

The compound listed as CCC12CN(C(=O)OC)C3C(Br)C1CCC(=O)C32 (stereo not given) shows GI50 equal to > 100 µM (inactive)

Per the records, this compound ( `O=c1c(=O)c2c(Br)sc(Br)c2c1=O` ) has GI50 equal to 20.3 µM (inactive)

----------
test system: DMS-114; assay: NCI tumour cell line growth inhibition, 48 h
Calls of active or inactive are those of the source. Rule as the data show it: active = GI50 up to about 1.1 µM and inactive = higher.
observed.property: GI50

// sample `CN(c1ccccc1)c1cc2ccccc2nn1` , its GI50 was 52.2 µM (inactive)

Input `COC(=O)c1cc(OC(C)=O)c2c(OC)ccc(OC)c2c1` . Output GI50: > 100 µM (inactive)

// GI50 lookup, molecule = CCOC(=O)/C=C1/Oc2ccccc2C1(C)O (stereo unspecified) , result: > 100 µM (inactive)

Form: molecule = O=[N+]([O-])c1ccc(C2=Nc3ccccc3SC(c3ccccc3)C2)cc1 (stereo unspecified) ; GI50 = 18.2 µM (inactive)

Next:
Looking up `O=C1CCN(CCC(F)(F)C(F)(F)C(F)(F)C(F)(F)F)C(=S)N1` , I see its GI50 listed as > 100 µM (inactive)

// GI50 value for `O=c1[nH]c(-c2ccccc2)nc2cc([N+](=O)[O-])c(/C(Cl)=C/c3ccccc3)cc12` : 35.7 µM (inactive)

----------
tested on: SK-OV-3; assay: NCI tumour cell line growth inhibition, 48 h
Activity calls are given as the source filed them. Rule as the data show it: active = GI50 up to about 1.1 µM and inactive = higher.
Respond only with the outcome that fits, drawn from active, inactive

Worked set:
## Input Per the records of this test, what outcome belongs to CCN1CCC(C)OP1(=O)Cc1ccccc1 (configuration not stated) ?
## Output inactive

## Input Hello, I am checking results. What call was entered for `COc1cc2c(cc1OC)C(=O)/C(=C/c1cc(C)cc(C)c1)C2` ?
## Output active

## Input Outcome? `CC1=C(C(=O)NCc2ccccc2)C(c2ccccc2C)C(C(=O)NCc2ccccc2)=C(C)N1`
## Output inactive

## Input Each molecule tested received a call. Report the one for COC(=O)N1C2C(C[C@@]1(C)C(=O)OC)c1ccccc1N2S(=O)(=O)c1ccccc1 (some centres not stated) .
## Output inactive

## Input Query: recorded result category for `CC1=CC(=O)N(n2c(Cc3ccc(Cl)cc3)n[nH]c2=O)C1=O` in this test
## Output inactive

## Input Tell me the recorded outcome of this test for Clc1ccc(C2=NNC(c3cccc(Cl)c3)C2)cc1 (configuration not stated) .
## Output inactive

---
## Input Please share the test call associated with COCC12CC(CC1=O)C1C2ON2c3ccccc3C(=O)C12c1ccccc1 (configuration not stated) .
## Output inactive

----------
Collected GI50 values appear next to each entry.
test system: HOP-62; experiment: NCI tumour cell line growth inhibition, 48 h
Calls of active or inactive are those of the source. Cut-off read from the data, not from the text of the source: active = GI50 up to about 1.1 µM and inactive = higher.

Examples with their reported GI50 follow.
Result for COc1ccc(/C=C2\CCC(C)(CN(C)C)C2=O)cc1Br (centres undefined) , tested on HOP-62, GI50: 49.3 µM (inactive)

Result for `O=C1C=CC(=NNc2ccccc2)C=CC1=O` , tested on HOP-62, GI50: 10.8 µM (inactive)

Measured GI50 (HOP-62), entry `O=c1c2cc(I)ccc2nc(SCc2nnco2)n1Cc1ccccc1` : 98.4 µM (inactive)

With HOP-62 as the test system, COC(=O)C(=O)C(CC(=O)Nc1ccc(C)cc1)C(=O)OC (centres undefined) showed GI50 of > 100 µM (inactive)

So the reported GI50 for `CC(=O)Oc1ccn2nc(C)c(Br)c2c1Br` , on HOP-62, turned out to be 44.4 µM (inactive)

Next:
Field GI50 (system: HOP-62) for entry `N#C/C=c1/c2ccccc2n2nc3ccccc3c12` = 17 µM (inactive)

----------
Parameter: GI50. Scope: all listed entries.
tested on: OVCAR-8; experiment: NCI tumour cell line growth inhibition, 48 h
Active and inactive are the calls of the source. Cut-off read from the data, not from the text of the source: active = GI50 up to about 1.1 µM and inactive = higher.

Example entries and their recorded answers appear below.
Short answer for `CCc1nc2ccc(NCCN(C)C)c3c(=O)c4ccccc4n1c23` : GI50 was 0.515 µM (active)

The compound listed as `COc1ccc2c(c1)/C(=C\c1c(Cl)n(-c3ccccc3)c3ccccc13)C(=O)N2` shows GI50 equal to 5.77 µM (inactive)

Briefly, GI50 measured for `Cc1ccc(N2C[N+](c3ccccc3)=NC(c3ccccc3)=N2)cc1` : 48.1 µM (inactive)

Others:
Given item `COC(=O)[C@@H](NC(=O)[C@H](N)Cc1ccc(N(CCCl)CCCl)cc1)C(C)C` , the value recorded as its GI50 is 7.06 µM (inactive)

// GI50 value for `O=C(c1ccco1)N(Cc1ccco1)C(=S)Nc1ccccc1` : 19 µM (inactive)

Record `CCO/N=C\c1ccc2oc(-c3ccccc3)cc(=O)c2c1` . Reported GI50: 0.465 µM (active)

Sure, the documented GI50 for Clc1ccc(C2=NOC3C4CCC(C4)C23)cc1 (stereo unspecified) is > 100 µM (inactive)

Record summary for CC1(C)[C@@H]2C[C@H]1C(Cc1ccccc1C[C@H]1c3cc(-c4ccccn4)ncc3[C@H]3C[C@@H]1C3(C)C)c1cc(-c3ccccn3)ncc12 (stereo partly specified) : reported GI50 = 0.378 µM (active)

Please fill in: GI50 reported for `CC(C)C1=C(Cc2ccccc2)C(=O)O/C1=C\c1ccc(O)c(Cl)c1` = 18.3 µM (inactive)

----------
system: OVCAR-4; test: NCI tumour cell line growth inhibition, 48 h
Calls of active or inactive are those of the source. Cut-off read from the data, not from the text of the source: active = GI50 up to about 1.1 µM and inactive = higher.
observed.property: GI50

Briefly, GI50 measured for `CC(C)=Cc1cc(C(=O)NCCNC(=O)c2cc(C=C(C)C)nc(NC#N)n2)nc(NC#N)n1` : > 100 µM (inactive)

More entries:
`O=C(CCCN1CCC2(CC1)C(=O)NC(=O)N2c1ccccc1)c1ccc(F)cc1` has a reported GI50 of > 100 µM (inactive)

// field: GI50; key: `O=C1CCN2c3ccccc3[C@H]3Cc4cccc(c4[C@@H]2C3)CCO1` ; value = 57.1 µM (inactive)

Memo: `c1ccc2c(CNCCCCCCNCc3cccc4ccccc34)cccc2c1` , reported GI50: 14.7 µM (inactive)

GI50 measured on COc1cc(C(=O)O)cc2c1[nH]c1ccccc12 [MUKOEIC ACID] = > 25 µM (inactive)

Recorded result, `CN(N=O)c1ccc(/C=C/c2ccnc3ccccc23)cc1` , GI50: > 100 µM (inactive)

Consider C[Si](C)(C)OC1(C#N)c2ccccc2CCCC12CCCC2 (stereo unspecified) . Its measured GI50 is 80 µM (inactive)

// sample `CCOP(=O)(/C=C\n1ccc(=O)[nH]c1=O)OCC` , its GI50 was > 100 µM (inactive)

GI50 reading for CC(Cc1ccc(O)c(O)c1)C(C)Cc1ccc(O)c(O)c1 (stereo unspecified) [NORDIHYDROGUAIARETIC ACID] : 14.4 µM (inactive)

Measured GI50 of `CC#CCCN(CC#N)Cc1ccccc1` : > 100 µM (inactive)

Recorded result, `COc1cc2nc(-c3cccs3)nc(Cl)c2cc1OC` , GI50: 52.5 µM (inactive)

----------
test system: DU-145; experiment: NCI tumour cell line growth inhibition, 48 h
Activity calls are given as the source filed them. Rule as the data show it: active = GI50 up to about 1.1 µM and inactive = higher.
observed.property: GI50

Solved cases (8 shown):
Record summary for `N/C(=N\N=C\c1c[nH]c2ccccc12)Nc1ccccc1` : reported GI50 = 0.314 µM (active)

Record summary for `S=C1SC(=N\c2ccccc2)/C(=N/c2ccccc2)N1c1ccccc1` : reported GI50 = > 100 µM (inactive)

Entry CN1C2CCC1CC(C)(O)C2 (centres undefined) , GI50 reported as > 100 µM (inactive)

Measured GI50 of `C=C1CC/C=C(/C(=O)O)CC[C@H]2[C@@H]1CC2(C)C` : > 100 µM (inactive)

Given item CCOC(=O)CCC(NC(=O)c1ccc(Nc2nc3cc(C(F)(F)F)ccc3nc2-c2ccccc2)cc1)C(=O)OCC (centres undefined) , the value recorded as its GI50 is 24.5 µM (inactive)

Item: `COC(=O)c1ccccc1NC(=S)NN(C)C` | GI50: > 100 µM (inactive)

Noted for CC1=NN(C(=O)CC(=O)Nc2cccc(C)c2)C(=O)C1/N=N\c1ccc(S(=O)(=O)c2ccc(/N=N/C3C(=O)N(C(=O)CC(=O)Nc4cccc(C)c4)N=C3C)cc2)cc1 (centres undefined) : its GI50 reads > 100 µM (inactive)

According to the records, this molecule COc1ccc(/C=C2\CC3C4CC=C5C[C@@H](O)CC[C@]5(C)C4CC[C@]3(C)\C2=N\O)cc1OC (some centres undefined) displays GI50 of 26.1 µM (inactive)

Let us examine a further case.
// field: GI50; key: `COc1cccc(NC(=O)CC(=O)n2nc(-c3ccccc3)c(/N=N/c3ccc(Cl)cc3)c2-c2ccccc2)c1` ; value = 25.3 µM (inactive)
